- Tested on: human hepatocytes
- testName: Metabolic stability in cryopreserved human hepatocytes
- testParameters: human hepatocytes, 0.1 uM, up to four hours
Label true (1) when CLint ± SEM is at or above 4 μL/min/10^6 cells; otherwise label false (0).

Reference set, count: 2
COCCOCCOCCNc1ccc(S(=O)(=O)N(CC(C)C)CC(O)[C@H](Cc2ccccc2)NC(=O)O[C@H]2CO[C@H]3OCC[C@H]32)cc1 (some centres unmarked); true (1)
COCCOC(=O)NC(C(=O)NC(Cc1ccccc1)C(O)CN(Cc1ccc(-c2ccccn2)cc1)NC(=O)C(NC(=O)OC)C(C)(C)C)C(C)(C)C (centres unmarked); true (1)

Lookup: Could you please find out whether COCCOCCOCCOCCOCCOCCOC(=O)NC(C(=O)NC(Cc1ccccc1)C(O)CN(Cc1ccc(-c2ccccn2)cc1)NC(=O)C(NC(=O)OC)C(C)(C)C)C(C)(C)C (centres unmarked) has CLint ± SEM that meets 4 μL/min/10^6 cells or exceeds it?
Found: false (0)

* * *

- testName: Plasma protein binding by equilibrium dialysis, human plasma
- Format: in vitro ADME
- testParameters: human, plasma
measuredAttribute: fraction unbound at 2 h, 5 μM
Reply: number alone, nothing else.

Lookup: # fraction unbound at 2 h, 5 μM lookup, item CC(C)(C)NC(=O)[C@@H]1C[C@@H]2CCCC[C@@H]2CN1C[C@@H](O)[C@H](Cc1ccccc1)NC(=O)[C@H](CC(N)=O)NC(=O)c1ccc2ccccc2n1 [Saquinavir]
Found: 0.0353

* * *

Listed here: items and their measured half-life.
- testName: Metabolic stability in rat liver microsomes
- Assay type: in vitro ADME
Give the number; min is assumed, so skip it.

COCCOCCOCCOC(=O)NC(C(=O)NC(Cc1ccccc1)C(O)CN(Cc1ccc(-c2ccccn2)cc1)NC(=O)C(NC(=O)OC)C(C)(C)C)C(C)(C)C (centres unmarked); 26.8

Lookup: # half-life lookup, item COC(=O)N[C@H](C(=O)N[C@@H](Cc1ccccc1)[C@@H](O)CN(Cc1ccc(-c2ccccn2)cc1)NC(=O)[C@@H](NC(=O)OC)C(C)(C)C)C(C)(C)C [Atazanavir, reference compound]
Found: 24.2

* * *

- Tested on: HIV-1Ba-L
- testName: Anti-HIV-1 activity in monocyte-derived dendritic cells (reverse transcriptase activity)
- Format: cell-based
- testParameters: dendritic cells, first determination; read-out: EC50 First
- Description: Freshly separated human PBMCs from a single donor were suspended in DPBS at 4×10^6 cells/mL and incubated in a 75 cm^2 cell culture flask for 90 minutes at 37° C., 5% CO2. Non-adherent cells were removed by washing with DPBS. […] After seven days in culture, HIV-1 replication was quantified by measuring HIV-1 reverse transcriptase activity in cell-free supernatants using a standard radioactive tritiated thymidine triphosphate (TTP) polymerization incorporation assay. […]
measuredAttribute: pEC50
Convention used: pEC50 is expressed as -log10 of the molar concentration.

COCCOCCOCCOCCOCCNc1ccc(S(=O)(=O)N(CC(C)C)CC(O)[C@H](Cc2ccccc2)NC(=O)O[C@H]2CO[C@H]3OCC[C@H]32)cc1 (some centres unmarked) [mPEG5-N-Darunavir]; 8.10

Lookup: # pEC50 lookup, item COCCOCCOCCOCCOCCOCCOC(=O)NC(C(=O)NC(Cc1ccccc1)C(O)CN(Cc1ccc(-c2ccccn2)cc1)NC(=O)C(NC(=O)OC)C(C)(C)C)C(C)(C)C (centres unmarked) [mono-mPEG6-Atazanavir]
Found: 9.80

Lookup: # pEC50 lookup, item COCCOC(=O)NC(C(=O)NC(Cc1ccccc1)C(O)CN(Cc1ccc(-c2ccccn2)cc1)NC(=O)C(NC(=O)OC)C(C)(C)C)C(C)(C)C (centres unmarked) [mono-mPEG1-Atazanavir]
Found: 9.80

Lookup: # pEC50 lookup, item COCCOCCOCCOCCOCCOC(=O)NC(C(=O)NC(Cc1ccccc1)C(O)CN(Cc1ccc(-c2ccccn2)cc1)NC(=O)C(NC(=O)OC)C(C)(C)C)C(C)(C)C (centres unmarked) [mono-mPEG5-Atazanavir]
Found: 9.82

Lookup: # pEC50 lookup, item COCCOCCOCCOCCOCCOc1ccc(C[C@H](NC(=O)O[C@H]2CO[C@H]3OCC[C@H]32)C(O)CN(CC(C)C)S(=O)(=O)c2ccc(N)cc2)cc1 (some centres unmarked) [mPEG5-O-Darunavir]
Found: 7.22
